Source listed as the supplement of paper PMC10567573.

B1: FBXO39 (parent)
chain: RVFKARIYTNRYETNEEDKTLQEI

Variants of: B1
test: protein stability index of a GFP-peptide fusion (GPS, HEK-293T) (PSI 1-6); higher = more stable;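 further: lentivirally expressed fusions sorted by FACS into six bins by GFP to DsRed ratio, PSI derived from sequencing read proportions per bin multiplied by bin number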
testConditions: c terminus: a fixed tail appended
experimentalEndpoint: protein stability index
Numbers only.

Use the examples below as a reference point.
Short answer for "D18L" : protein stability index was 2.46

Field protein stability index (entry "A5W" ) reads 2.34

Data point: "E17L" ; protein stability index = 2.41

Each of the following entries comes with a recorded value; kindly state protein stability index for each.
1. D18V
2. E16I
3. K19S
4. K4R
5. T14D
6. K4H

Result:
1. 2.4
2. 3.1
3. 3.39
4. 3.12
5. 3.34
6. 3.52

State the recorded protein stability index for every item in the following list.
1. E13W
2. I7A
3. D18A
4. F3A
5. D18S

Result:
1. 2.53
2. 3.14
3. 3.19
4. 4.19
5. 1.71

For every record below, what is its protein stability index?
1. K4F
2. L21A

Result:
[2.03, 2.9]
